assay: HepG2 cytotoxicity, primary screen, cytotoxicity control for P. falciparum antimalarial project, cell-based, ATP luminescence (AID 2303); settings: HepG2 viability, 24-48 h, at 10 µM
Activity calls are given as the source filed them.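 How the source made its calls: active means inhibition above 50%; inactive means the rest.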
Possible outcomes: active, inactive

- molecule: "O=C(NCCc1ccc(Cl)c(Cl)c1)[C@@H]1CCCN1C(=O)c1ccc(O)c(-c2cccc(C(F)(F)F)c2)c1"
  class.label: "inactive"
- molecule: "COC(=O)c1ccc2nc(-c3ccc(C(=O)NCc4ccc(Cl)c(Cl)c4)cc3)[nH]c2c1"
  class.label: "inactive"
- molecule: "CC(C)NCc1ccc(-c2cccc(NC(=O)c3ccc(Cl)cc3)c2)cc1"
  class.label: "inactive"
- molecule: "CN(Cc1ccccc1)C1CCCN(c2cc(NC(=O)c3cccs3)ccn2)C1 (stereo not given)"
  class.label: "inactive"
- molecule: "Cc1cccc2[nH]c(-c3cccc(-c4ccc(CNCc5cnn(-c6ccccc6)n5)cc4)c3)nc12"
  class.label: "inactive"
- molecule: "Cc1ccc(NC(=O)c2cccc(CN3CCCN(Cc4cccc(O)c4)CC3)c2)cc1F"
  class.label: "inactive"
- molecule: "CN(c1ccc2c(c1)nc(Nc1ccc(Cl)cc1)n2C)c1ccnc(Nc2ccc(CS(C)(=O)=O)cc2)n1"
  class.label: "active"
- molecule: "Cc1nnsc1C(=O)Nc1cccc(-c2ccc(-c3nc4ccccc4[nH]3)cc2)c1"
  class.label: "inactive"
- molecule: "CN1CCN(c2ccc(Cl)cc2NC(=O)C2COc3ccccc3O2)CC1 (stereo not given)"
  class.label: "inactive"
- molecule: "O=C(NCC1CCCCC1)c1cc(=O)c2ccccc2o1"
  class.label: "inactive"
- molecule: "CCCCNC(=O)[C@@H]1CCCN1C(=O)c1ccc(O)c(-c2ccc(Cl)c(Cl)c2)c1"
  class.label: "inactive"
- molecule: "Clc1ccc(CNCC2CCN(CC3CCCCC3)CC2)cc1Cl"
  class.label: "inactive"
- molecule: "CC(C)(C)c1ccc(CNC(=O)/C=C/c2ccc(-c3nc4ccc(C(C)(C)C)cc4[nH]3)cc2)cc1"
  class.label: "inactive"
- molecule: "COc1ccc(S(=O)(=O)NC2CCN(CCNC(=O)Nc3cc(C)nc4ccccc34)C2)cc1 (stereo not given)"
  class.label: "inactive"
- molecule: "CN(CCCCCN1CCC(NC(=O)Nc2ccc(C(F)(F)F)cc2)C1)C(=O)/C=C/c1ccc(Cl)c(Cl)c1 (stereo not given)"
  class.label: "inactive"
